Reference source: ChEMBL document CHEMBL1132845

tested-on: Glutamate receptor ionotropic, AMPA (Rattus norvegicus, UniProt P19490+P19491+P19492+P19493)
test-method-notes: Binding affinity against Ionotropic glutamate receptor AMPA in rat brain
property-label: IC50 (nM)
State the answer as a number, implicitly in nM.

Look up IC50 for this compound: `O=C(O)Cc1cccc2c1Cc1c-2nc(O)c2nc(C(=O)O)cn12`
4

====

tested-on: Glutamate NMDA receptor
test-method-notes: Binding affinity for N-methyl-D-aspartate glutamate receptor
property-label: IC50 (µM)
State the answer as a number, implicitly in µM.

Look up IC50 for this compound: `O=C(O)c1ccc2c(c1)Cc1c-2nc(O)c2nccn12`
10

Look up IC50 for this compound: `O=C(O)Cc1cn2c3c(nc(O)c2n1)-c1cccc(CC(=O)O)c1C3`
2.1

Look up IC50 for this compound: CC(C(=O)O)c1cccc2c1Cc1c-2nc(O)c2nc(C(=O)O)cn12 (centres undefined)
4.1

Look up IC50 for this compound: `O=C(O)c1cccc2c1Cc1c-2nc(O)c2nccn12`
21

Look up IC50 for this compound: `O=C(O)Cc1cccc2c1Cc1c-2nc(O)c2nc(C(=O)O)cn12`
7.2

Look up IC50 for this compound: `O=C(O)c1cn2c3c(nc(O)c2n1)-c1ccccc1C3`
0.083

====

tested-on: Glutamate receptor ionotropic, AMPA (Rattus norvegicus, UniProt P19490+P19491+P19492+P19493)
Assign labels as follows, please: yes for IC50 below 0.09 µM; no for IC50 equal to or exceeding 0.09 µM.

Problem: For the compound `O=C(O)c1cccc2c1Cc1c-2nc(O)c2nccn12` , is IC50 under 0.09 µM?
no

Problem: For the compound `O=C(O)Cc1ccc2c(c1)Cc1c-2nc(O)c2nccn12` , is IC50 under 0.09 µM?
no

Problem: For the compound `O=C(O)Cc1cccc2c1Cc1c-2nc(O)c2nc(C(=O)O)cn12` , is IC50 under 0.09 µM?
yes

Problem: For the compound `O=C(O)Cc1ccc2c(c1)Cc1c-2nc(O)c2nc(C(=O)O)cn12` , is IC50 under 0.09 µM?
no

Problem: For the compound `O=C(O)c1ccc2c(c1)Cc1c-2nc(O)c2nccn12` , is IC50 under 0.09 µM?
no

Problem: For the compound CC(C(=O)O)c1cccc2c1Cc1c-2nc(O)c2nc(C(=O)O)cn12 (stereo not drawn) , is IC50 under 0.09 µM?
no

Problem: For the compound `O=C(O)Cc1cn2c3c(nc(O)c2n1)-c1cccc(CC(=O)O)c1C3` , is IC50 under 0.09 µM?
yes

====

tested-on: Glutamate receptor ionotropic, AMPA (Rattus norvegicus, UniProt P19490+P19491+P19492+P19493)
Assign labels as follows, please: condition met for IC50 below 0.05 µM; condition not met for IC50 equal to or exceeding 0.05 µM.

Problem: For the compound `O=C(O)c1ccc2c(c1)Cc1c-2nc(O)c2nccn12` , is IC50 under 0.05 µM?
condition not met

Problem: For the compound `O=C(O)c1cn2c3c(nc(O)c2n1)-c1ccccc1C3` , is IC50 under 0.05 µM?
condition met

Problem: For the compound O=C(O)[C@@H]1C[C@H]2C[C@@H](CCc3nn[nH]n3)CC[C@H]2CN1 [TEZAMPANEL ANHYDROUS] , is IC50 under 0.05 µM?
condition not met

Problem: For the compound `O=C(O)c1cccc2c1Cc1c-2nc(O)c2nccn12` , is IC50 under 0.05 µM?
condition not met

Problem: For the compound `O=C(O)Cc1cccc2c1Cc1c-2nc(O)c2nc(C(=O)O)cn12` , is IC50 under 0.05 µM?
condition met

Problem: For the compound `O=C(O)Cc1cccc2c1Cc1c-2nc(O)c2nccn12` , is IC50 under 0.05 µM?
condition not met

Problem: For the compound CC(C(=O)O)c1cccc2c1Cc1c-2nc(O)c2nc(C(=O)O)cn12 (configuration not stated) , is IC50 under 0.05 µM?
condition not met

Problem: For the compound `O=C(O)Cc1ccc2c(c1)Cc1c-2nc(O)c2nccn12` , is IC50 under 0.05 µM?
condition not met

Problem: For the compound `O=C(O)Cc1ccc2c(c1)Cc1c-2nc(O)c2nc(C(=O)O)cn12` , is IC50 under 0.05 µM?
condition not met

Problem: For the compound `Oc1nc2c(n3ccnc13)Cc1ccccc1-2` , is IC50 under 0.05 µM?
condition not met

Problem: For the compound O=c1[nH]c2cc(-n3ccnc3)c([N+](=O)[O-])cc2[nH]c1=O [YM-90K] , is IC50 under 0.05 µM?
condition not met

Problem: For the compound `O=C(O)Cc1cn2c3c(nc(O)c2n1)-c1cccc(CC(=O)O)c1C3` , is IC50 under 0.05 µM?
condition met
